- System: SK-MEL-5 melanoma
- assay details: NCI tumour cell line growth inhibition, 48 h; in the data active = GI50 below about 0.43 µM; inactive = the rest
Possible outcomes: class 1 for active, class 0 for inactive

| compound | assigned category |
| --- | --- |
| CCCN1C(=O)/C(=C/c2ccc(SC(F)(F)F)cc2)SC1=Nc1ccc(OC)cc1 | class 0 |
| CCn1c(-c2nonc2N)nc2ccccc21 | class 0 |
| N#C[S-].[La+3].c1ccc(-c2ccccn2)nc1.c1ccc(-c2ccccn2)nc1.c1ccc(-c2ccccn2)nc1 | class 0 |
| CC1[C@@]2(CCC(C)(C)O2)O[C@@H]2C=C3C4CCC5Cc6nc7c(nc6C[C@@]5(C)C4C[C@H](O)[C@@]3(C)[C@]12O)CC1CCC2C3=C[C@H]4O[C@@]5(O[C@@](C)(CO)C[C@@H]5O)C(C)[C@@]4(O)[C@]3(C)[C@@H](O)CC2[C@]1(C)C7 (stereo not given in full) | class 1 |
| CCc1ccc2c(c1)C(=O)c1c-2n(CCCN)c(=O)c2cc(OC)c(OC)cc12 | class 0 |
| COc1ccc(-c2nsc3c2NC(=O)CC3c2ccsc2)cc1 (stereo not given) | class 1 |
| CCSC[C@@H]1C[C@](O)(c2ccccc2)[C@@H](c2ccccc2)O1 | class 0 |
| CCn1cc(C(=O)O)c(=O)c2cc(F)c(N3CCN(S(=O)(=O)c4ccc(Cl)cc4Cl)CC3)cc21 | class 0 |
| Cn1c(=O)c(-c2ccccc2Cl)cc2cnc(NC3CCOCC3)nc21 | class 0 |
| Cc1ccc(-c2nc(NCCOCCOCCN)nc(N3CCN(c4ccccn4)CC3)n2)cc1 | class 0 |
| Clc1ccc(C=Nc2ccc(-c3nc4ccccc4[nH]3)cc2)cc1 | class 0 |
| CC(=O)c1cc2c(N)c(C(=O)Nc3cccc4ccccc34)sc2nc1C | class 0 |
| Cc1cc(NC(=O)NCc2ccc(N3C(N)=NC(N)=NC3(C)C)cc2)ccc1S(=O)(=O)F | class 0 |
| O=C1C(Cl)=C(Nc2ccc(S(=O)(=O)c3ccc(NC4=C(Cl)C(=O)c5ccccc5C4=O)cc3)cc2)C(=O)c2ccccc21 | class 0 |
| COc1cc2ncn(-c3cc(OCc4ccccc4C(F)(F)F)c(C(N)=O)s3)c2cc1OC | class 1 |

Data provenance is PubChem BioAssay (NCI).
